# ASSAY INFO: Tmax in Sprague-Dawley rat serum at 10 mg/kg, po administered as single dose after 1 hr
# Type: ADME, organism-based
# Set-up: dose 10 mg/kg, route oral
MEASURED METRIC: Tmax (min)
Give bare numbers, in min.

Challenge: Which Tmax reading was recorded for the compound O=[N+]([O-])c1ccc(N2CCN(c3cccc(C(F)(F)F)c3)CC2)c(C(F)(F)F)c1 ?
Response given: 30

###

# ASSAY INFO: AUC (0 to t) in Sprague-Dawley rat prostate gland at 10 mg/kg, po administered as single dose
# Type: ADME, organism-based
# Set-up: dose 10 mg/kg, route oral
# DETAILS: in vivo
MEASURED METRIC: AUC (ng·h/g)
Give bare numbers, in ng·h/g.

Challenge: Which AUC reading was recorded for the molecule O=[N+]([O-])c1ccc(N2CCN(c3cccc(C(F)(F)F)c3)CC2)c(C(F)(F)F)c1 ?
Response given: 5650

Values compiled from ChEMBL document CHEMBL1649081.
